target: Botulinum neurotoxin type A (Clostridium botulinum)
EXPERIMENTAL READOUT: pKi
// pKi here means minus log10 of the molar concentration (mol/L)

Measured pKi, "C=C(C)[C@@H]1CC[C@]2(COC(=O)CCC(=O)O)CC[C@]3(C)[C@H](CC[C@@H]4[C@@]5(C)CC[C@H](O)C(C)(C)[C@@H]5CC[C@]43C)[C@@H]12" : 6.10

Measured pKi, "C=C(C)[C@@H]1CC[C@]2(C(=O)O)CC[C@]3(C)[C@H](CC[C@@H]4[C@@]5(C)CC[C@H](O)C(C)(C)[C@@H]5CC[C@]43C)[C@@H]12" : 4.84

Measured pKi, "C=C(C)[C@@H]1CC[C@]2(COC(=O)COc3cc(C(C)C)ccc3C)CC[C@]3(C)[C@H](CC[C@@H]4[C@@]5(C)CC[C@H](O)C(C)(C)[C@@H]5CC[C@]43C)[C@@H]12" : 4.88

====

Here we list molecules with their recorded IC50 when tested on Botulinum neurotoxin type A (Clostridium botulinum, UniProt P0DPI0).
Sequence (P0DPI0 2-448 limits assumed): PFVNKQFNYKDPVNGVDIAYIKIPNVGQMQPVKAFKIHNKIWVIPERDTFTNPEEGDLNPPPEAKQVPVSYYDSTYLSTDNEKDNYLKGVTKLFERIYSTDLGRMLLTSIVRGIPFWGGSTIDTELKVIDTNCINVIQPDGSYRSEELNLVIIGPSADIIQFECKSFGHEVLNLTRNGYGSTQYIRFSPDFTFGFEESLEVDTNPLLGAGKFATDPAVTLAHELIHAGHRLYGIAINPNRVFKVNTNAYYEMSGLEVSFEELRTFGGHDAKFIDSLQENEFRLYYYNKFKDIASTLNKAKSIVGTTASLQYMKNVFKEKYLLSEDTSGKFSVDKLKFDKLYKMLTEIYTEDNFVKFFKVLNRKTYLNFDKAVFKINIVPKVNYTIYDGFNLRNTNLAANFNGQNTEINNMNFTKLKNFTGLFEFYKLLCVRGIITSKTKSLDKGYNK
Give the value, in units of µM, as a plain number.

Measured IC50, "C=C(C)[C@@H]1CC[C@]2(COC(=O)CCC(=O)O)CC[C@]3(C)[C@H](CC[C@@H]4[C@@]5(C)CC[C@H](O)C(C)(C)[C@@H]5CC[C@]43C)[C@@H]12" : 1.5

Measured IC50, C=C(C)[C@@H]1CC[C@]2(C(=O)O)CC[C@]3(C)[C@H](CC[C@@H]4[C@@]5(C)CC[C@H](O)C(C)(C)[C@@H]5CC[C@]43C)[C@@H]12 [BETULINIC ACID] : 20

Measured IC50, "C=C(C)[C@@H]1CC[C@]2(COC(=O)COc3cc(C(C)C)ccc3C)CC[C@]3(C)[C@H](CC[C@@H]4[C@@]5(C)CC[C@H](O)C(C)(C)[C@@H]5CC[C@]43C)[C@@H]12" : 10
